All values here come from patent US20240158393A1.

molecular target: Human Mer (Homo sapiens); construct: Human Mer (residues R557-E882 with H628Q and R794A, 0.7 nM); assay: Human Mer kinase assay (33P radiometric / HTRF KinEase); conditions: protocols of Examples C-1 and/or C-2
Entries and their IC50
readout kind: IC50

1. COCCOc1cc2nccc(Oc3ccc(NC(=O)c4cnc(C)c(/C=C/C5CCCC5)c4O)cc3F)c2nc1OC [Compound 36]: ≤ 100 nM
2. COc1cc2nccc(Oc3ccc(NC(=O)c4c(C)n(C)c(C)c(OC)c4=O)cc3)c2nc1OC [Compound 76]: > 300 nM
3. COc1cc2nccc(Oc3ccc(NC(=O)c4c(C)n(C)c(C)c(C#N)c4=O)cc3F)c2nc1OC [Compound 78]: > 300 nM
4. COCCOc1cc2nccc(Oc3ccc(NC(=O)c4c(C)n(C)c(C)c(C5=CCCCC5)c4=O)cc3F)c2nc1OC [Compound 58]: ≤ 100 nM

###

target: Human Met (Homo sapiens); construct: Human MET (residues 956-1390); assay: Human Met kinase assay (33P radiometric / HTRF KinEase); conditions: protocols of Examples D-1 and/or D-2; read-out: c-Met IC50
Sequence (P08581 974-1390 limits assumed): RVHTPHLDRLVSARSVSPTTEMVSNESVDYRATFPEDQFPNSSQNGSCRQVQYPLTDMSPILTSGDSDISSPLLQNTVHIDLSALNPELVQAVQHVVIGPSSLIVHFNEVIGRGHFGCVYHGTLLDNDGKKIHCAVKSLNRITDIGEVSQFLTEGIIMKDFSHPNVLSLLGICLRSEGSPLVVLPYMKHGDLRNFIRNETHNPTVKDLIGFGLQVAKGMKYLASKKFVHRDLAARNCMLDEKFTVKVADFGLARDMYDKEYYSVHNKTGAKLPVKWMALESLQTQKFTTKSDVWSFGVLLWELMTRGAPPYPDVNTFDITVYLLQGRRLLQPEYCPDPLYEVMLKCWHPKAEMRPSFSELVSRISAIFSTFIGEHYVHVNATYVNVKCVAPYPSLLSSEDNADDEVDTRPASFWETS
readout kind: IC50

1) COc1cc2nccc(Oc3ccc(NC(=O)c4c(C)cc(C)n(C5CCCC5)c4=O)cc3F)c2nc1OC: ≤ 100 nM
2) COc1cc2nccc(Oc3ccc(NC(=O)c4c(C)n(C)c(C)c(C5=CCOCC5)c4=O)cc3F)c2nc1OC: ≤ 100 nM
3) COc1cc2nccc(Oc3ccc(NC(=O)c4c(C)nc(C)c(C(C)C)c4O)cc3F)c2nc1OC: ≤ 100 nM
4) COc1cc2nccc(Oc3cc(F)c(NC(=O)c4c(C)nc(C)c(C(C)C)c4O)cc3F)c2nc1OC: ≤ 100 nM
5) COc1cc2nccc(Oc3ccc(NC(=O)c4c5n(cc(C6=CCCC6)c4=O)CCOC5)cc3)c2nc1OC: ≤ 100 nM
6) COc1ccc2nccc(Oc3ccc(NC(=O)c4cnc(C)c(C5=CCCCC5)c4O)cc3F)c2n1: ≤ 100 nM
7) COc1cc2nccc(Oc3ccc(NC(=O)c4cnc(C)c(/C=C/C5CCCC5)c4O)cc3F)c2nc1OC: > 300 nM
8) COc1cnc2c(Oc3ccc(NC(=O)c4c(C)nc(C)c(C(C)C)c4O)cc3F)ccnc2c1: ≤ 100 nM
9) COc1cc2nccc(Oc3ccc(NC(=O)c4c5n(c(C)c(C6=CCCC6)c4=O)CCOC5)cc3)c2nc1OC: ≤ 100 nM
10) COCCOc1cc2nccc(Oc3ccc(NC(=O)c4c(C)nc(C)c(OC)c4O)cc3F)c2nc1OC: > 300 nM
11) COCCOc1cc2nccc(Oc3ccc(NC(=O)c4c(C)n(C)c(C)c(C5=CCCCC5)c4=O)cc3F)c2nc1OC: ≤ 100 nM
12) COCCOc1cc2nccc(Oc3ccc(NC(=O)c4c(C)nc(C)c(OC)c4O)cc3)c2nc1OC: > 300 nM
13) COc1cc2nccc(Oc3ccc(NC(=O)c4c(C)n(C)c(C)c(C(=O)O)c4=O)cc3F)c2nc1OC: > 300 nM
14) COc1cc2nccc(Oc3ccc(NC(=O)c4c5n(cc(C6=CCCC6)c4=O)CCOC5)cc3F)c2nc1OC: ≤ 100 nM
15) COc1cnc2c(Oc3ccc(NC(=O)c4c(C)n(C)c(C)c(OC)c4=O)cc3F)ccnc2c1: > 300 nM
16) COc1cnc2c(Oc3ccc(NC(=O)c4cnc(C)c(C5=CCOCC5)c4O)cc3)ccnc2c1: ≤ 100 nM
17) COCCOc1cc2nccc(Oc3ccc(NC(=O)c4cnc(C)c(/C=C/C5CC5)c4O)cc3F)c2nc1OC: ≤ 100 nM
18) COc1cc2nccc(Oc3ccc(NC(=O)c4cnc(C)c(C5=CCOCC5)c4O)cc3F)c2nc1OC: ≤ 100 nM
19) COc1ccc2nccc(Oc3ccc(NC(=O)c4cnc(C)c(C5=CCCC5)c4O)cc3F)c2n1: ≤ 100 nM
20) COc1cc2nccc(Oc3ccc(NC(=O)c4cn(C)c(C)c(C5CCCC5)c4=O)cc3F)c2nc1OC: ≤ 100 nM
21) COCCOc1cc2ncnc(Oc3ccc(NC(=O)c4c(C)nc(C)c(OC)c4O)cc3F)c2nc1OC: > 300 nM
22) COCCOc1cc2nccc(Oc3ccc(NC(=O)c4c(C)nc(C)c(C5=CCOCC5)c4O)cc3F)c2nc1OC: ≤ 100 nM
23) COc1cc2nccc(Oc3ccc(NC(=O)c4c(C)cc(C)n(C5=CCCC5)c4=O)cc3F)c2nc1OC: ≤ 100 nM
24) COc1cc2nccc(Oc3ccc(NC(=O)c4c(C)nc(C)c(C(=O)NC(C)C)c4O)cc3F)c2nc1OC: > 300 nM
25) COc1cc2nccc(Oc3ccc(NC(=O)c4c(C)nc(C)c(OC)c4O)cc3F)c2nc1OC: > 300 nM
26) COCCOc1cc2nccc(Oc3ccc(NC(=O)c4cnc(C)c(C5=CCCCC5)c4O)cc3F)c2nc1OC: ≤ 100 nM
27) COc1cc2nccc(Oc3ccc(NC(=O)c4c5n(cc(C6=CCOCC6)c4=O)CCOC5)cc3)c2nc1OC: > 300 nM
28) COc1cc2nccc(Oc3ccc(NC(=O)c4c(C)n(C)c(C)c(OC)c4=O)cc3F)c2nc1OC: > 300 nM
29) COc1cnc2c(Oc3ccc(NC(=O)c4cnc(C)c(C5=CCCC5)c4O)cc3F)ccnc2c1: ≤ 100 nM
30) COc1cc2nccc(Oc3ccc(NC(=O)c4c(C)nc(C)c(C(N)=O)c4O)cc3)c2nc1OC: > 300 nM

###

IC50 tested on Human KDR (Homo sapiens, UniProt P35968): recorded values
Sequence (P35968 790-1356): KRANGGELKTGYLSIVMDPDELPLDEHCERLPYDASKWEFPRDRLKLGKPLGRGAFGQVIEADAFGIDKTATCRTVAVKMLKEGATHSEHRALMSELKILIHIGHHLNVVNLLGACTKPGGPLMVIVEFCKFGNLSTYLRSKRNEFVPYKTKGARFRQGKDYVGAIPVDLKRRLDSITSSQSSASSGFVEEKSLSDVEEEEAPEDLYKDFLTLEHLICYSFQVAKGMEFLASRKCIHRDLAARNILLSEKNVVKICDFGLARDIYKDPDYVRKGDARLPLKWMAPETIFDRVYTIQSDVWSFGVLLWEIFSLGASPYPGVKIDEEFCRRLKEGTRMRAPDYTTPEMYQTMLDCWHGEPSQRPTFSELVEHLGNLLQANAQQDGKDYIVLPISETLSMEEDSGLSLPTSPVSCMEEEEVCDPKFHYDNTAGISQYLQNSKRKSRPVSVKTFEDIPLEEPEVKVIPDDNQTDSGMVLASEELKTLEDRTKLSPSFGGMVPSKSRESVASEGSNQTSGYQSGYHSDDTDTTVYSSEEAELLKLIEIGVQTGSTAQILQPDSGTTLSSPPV
readout kind: IC50

1. COc1cc2nccc(Oc3ccc(NC(=O)c4c5n(c(C)c(C6=CCCC6)c4=O)CCOC5)cc3)c2nc1OC: > 300 nM
2. COc1nc2c(Oc3ccc(NC(=O)c4c(C)n(C)c(C)c(C5=CCCC5)c4=O)cc3F)ccnc2cc1OCCC1CCC1: ≤ 100 nM
3. COc1cc2nccc(Oc3ccc(NC(=O)c4c(C)ccn(C(C)C)c4=O)cc3)c2nc1OC: > 300 nM

###

target: Human Met (Homo sapiens); construct: Human MET (residues 956-1390); assay: Human Met kinase assay (33P radiometric / HTRF KinEase); format: biochemical; conditions: protocols of Examples D-1 and/or D-2; read-out: c-Met IC50
Entries and their IC50
readout kind: IC50

1. COc1cc2nccc(Oc3ccc(NC(=O)c4c(C)nc(C)c(C(N)=O)c4O)cc3F)c2nc1OC [Compound 84]: > 300 nM
2. COCCOc1cc2nccc(Oc3ccc(NC(=O)c4cnc(C)c(/C=C/C(C)(C)C)c4O)cc3F)c2nc1OC [Compound 40]: ≤ 100 nM
3. COc1cc2nccc(Oc3ccc(NC(=O)c4c(C)n(C)c(C)c(C(C)C)c4=O)cc3)c2nc1OC [Compound 57]: > 300 nM
4. COc1cc2nccc(Oc3ccc(NC(=O)c4c(C)n(C)c(C)c(C5CC5)c4=O)cc3F)c2nc1OC [Compound 46]: > 300 nM
5. COc1cc2nccc(Oc3ccc(NC(=O)c4cnc(C)c(/C=C/CC(C)C)c4O)cc3F)c2cc1OC [Compound 29]: ≤ 100 nM
6. COCCOc1cc2nccc(Oc3ccc(NC(=O)c4cnc(C)c(/C=C/C5CCCC5)c4O)cc3F)c2nc1OC [Compound 36]: ≤ 100 nM
7. COc1cc2nccc(Oc3ccc(NC(=O)c4c(C)ccn(C(C)C)c4=O)cc3F)c2nc1OC [Compound 38]: > 300 nM

###

Target: Human Mer (Homo sapiens, UniProt Q12866)
Construct: Human Mer (residues R557-E882 with H628Q and R794A, 0.7 nM)
Sequence (Q12866 557-882 limits assumed): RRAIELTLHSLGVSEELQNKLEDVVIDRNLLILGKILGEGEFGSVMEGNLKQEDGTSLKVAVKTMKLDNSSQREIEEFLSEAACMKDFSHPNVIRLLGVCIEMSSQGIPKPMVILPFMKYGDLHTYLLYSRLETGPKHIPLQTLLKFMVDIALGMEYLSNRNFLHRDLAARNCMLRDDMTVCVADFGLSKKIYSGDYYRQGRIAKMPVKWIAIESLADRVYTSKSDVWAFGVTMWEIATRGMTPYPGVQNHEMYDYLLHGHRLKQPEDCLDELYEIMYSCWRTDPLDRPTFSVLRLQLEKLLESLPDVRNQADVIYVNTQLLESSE
Test: Human Mer kinase assay (33P radiometric / HTRF KinEase)
Details: protocols of Examples C-1 and/or C-2
readout kind: IC50

1) COc1cc2nccc(Oc3ccc(NC(=O)c4c(C)n(C)c(C)c(OC)c4=O)cc3F)c2nc1OC: > 300 nM
2) CNC(=O)c1c(C)nc(C)c(C(=O)Nc2ccc(Oc3ccnc4cc(OC)c(OC)nc34)c(F)c2)c1O: > 300 nM
3) COc1cc2nccc(Oc3cc(F)c(NC(=O)c4c(C)n(C)c(C)c(C5CC5)c4=O)cc3F)c2nc1OC: ≤ 100 nM
4) COCCOc1cc2nccc(Oc3ccc(NC(=O)c4c(C)n(C)c(C)c(/C=C/C(C)(C)C)c4=O)cc3F)c2nc1OC: ≤ 100 nM
